Kindly supply the reported CC50 values for the records listed here.
# assay.explanation: Cytotoxicity panel, CEM
# measurement.context: human, CEM cells, Cytotoxicity (CC50 uM) CEM

Enquiry: What does the data say about its CC50? Entry: C[C@@]1(O)C(O)[C@@H](COP(=O)(O)O)O[C@H]1n1ccc(=O)[nH]c1=S (some centres unmarked) [ENUC-01984-1]
Return: > 400 µM

Enquiry: What does the data say about its CC50? Entry: CC(C)OC(=O)[C@H](C)NP(=O)(OC[C@H]1O[C@@H](n2ccc(=O)[nH]c2=S)[C@@H](O)C1O)Oc1ccccc1 (some centres unmarked) [ENUC-02072-1]
Return: > 400 µM

Enquiry: What does the data say about its CC50? Entry: CC(C)OC(=O)[C@H](C)NP(=O)(OC[C@H]1O[C@@H](n2ccc(=S)[nH]c2=O)[C@@H](O)C1O)Oc1ccccc1 (some centres unmarked) [ENUC-02071-1]
Return: 241 µM

Need CC50 for each of these compounds.
1. CC(C)OC(=O)[C@H](C)NP(=O)(OC[C@H]1O[C@@H](n2ccc(=O)[nH]c2=O)[C@](C)(O)C1O)Oc1ccccc1 (some centres unmarked) [ENUC-01982-1]
2. C#C[C@]1(COP(=O)(N[C@@H](C)C(=O)OC(C)C)Oc2ccccc2)O[C@@H](n2ccc(=O)[nH]c2=S)[C@@H](O)C1O (some centres unmarked) [ENUC-02069-1]
3. CC(C)OC(=O)[C@H](C)NP(=O)(OC[C@H]1O[C@@H](n2ccc(=S)[nH]c2=O)[C@](C)(F)C1O)Oc1ccccc1 (some centres unmarked) [ENUC-01943-1]
4. CC(C)OC(=O)[C@H](C)N[P@](=O)(OC[C@H]1O[C@@H](n2ccc(=O)[nH]c2=S)[C@](C)(O)C1O)Oc1ccccc1 (some centres unmarked) [ENUC-02023-1]
5. C[C@H](NP(=O)(O)OC[C@H]1O[C@@H](n2ccc(=O)[nH]c2=S)[C@](C)(O)C1O)C(=O)O (some centres unmarked) [ENUC-01997-1]

Return:
["150 µM", "> 400 µM", "136 µM", "> 400 µM", "> 400 µM"]
